Attribution: patent US20250257034A1

assay: Pharmacokinetic studies in rat (i.v.); assay type: in vivo; details: male, Sprague-Dawley, rat, plasma, iv, 1.33 mg/kg, I-17 1.33 mg/kg i.v., rat plasma, individual rats R07-R09; estimated from 2 points only; read-out: Apparent t1/2 (converted)
Measured property: half-life (h)
Field format: number, assumed h, no unit text.

Request: State its half-life: `CSc1ccc2[nH]cc(CCN(C(C)C)C(C)C)c2c1`
Response: 1.54

---

experiment: Rat liver microsomes stability; assay type: in vitro ADME; settings: male, pooled liver microsomes; rat liver microsomes, 2 μM compound, 0.5 mg/mL
Measured property: half-life at 2 μM (min)
Give your result in min as a bare value.

Request: Give half-life at 2 μM for COc1ccc2[nH]cc(CCN3CC[C@@H](OC(F)F)C3)c2c1 [(R) I-67]
Response: 10.5

Request: Let me know recorded half-life at 2 μM for `CN(C)CCc1c[nH]c2ccc(OCCOC(F)F)cc12` , thanks.
Response: 7.43

Request: Name the recorded half-life at 2 μM of the compound listed here: `COc1ccc2[nH]cc(CCN(C)CCOC(F)F)c2c1`
Response: 9.7

Request: Give a short answer stating reported half-life at 2 μM for COc1ccc2[nH]cc(CCN3CC[C@@H](OC)C3)c2c1 [(R) I-66] .
Response: 17.8

---

experiment: Pharmacokinetic studies in rat (i.v.); type: in vivo; details: male, Sprague-Dawley, rat, plasma, iv, 1.14 mg/kg, I-13 1.14 mg/kg i.v., rat plasma, mean (n = 2); estimated from 2 points only; read-out: Apparent t1/2 (converted)
Measured property: half-life

Request: # return recorded half-life for input `CCN(C)CCc1c[nH]c2ccc(SC)cc12`
Response: 31.9 min

---

biological target: human 5-HT1A receptor (Homo sapiens); assay: Human 5-HT1A radioligand binding assay ([3H]-8-Hydroxy-DPAT); set-up: expressed in transfected cells; host or cells: HTR1A&Gα15-CHO
Sequence (P08908 whole entry): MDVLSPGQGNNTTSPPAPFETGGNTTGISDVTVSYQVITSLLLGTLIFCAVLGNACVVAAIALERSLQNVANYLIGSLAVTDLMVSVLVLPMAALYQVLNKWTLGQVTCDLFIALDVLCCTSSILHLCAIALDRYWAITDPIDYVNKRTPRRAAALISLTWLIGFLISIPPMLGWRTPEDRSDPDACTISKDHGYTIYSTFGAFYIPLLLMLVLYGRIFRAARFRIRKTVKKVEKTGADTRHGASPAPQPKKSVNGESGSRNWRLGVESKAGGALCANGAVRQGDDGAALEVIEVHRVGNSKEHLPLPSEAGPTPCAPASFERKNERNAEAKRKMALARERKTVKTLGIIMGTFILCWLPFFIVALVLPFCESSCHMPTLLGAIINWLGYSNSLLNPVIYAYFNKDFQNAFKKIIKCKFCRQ
For each of the compounds below, state its log10(IC50).
Annotation: log10 of IC50, µM basis.

Request: Give me measured log10(IC50), please, for this compound: `CSc1ccc2[nH]cc(CCN(C)C(C)C)c2c1`
Response: -1.77

Request: Input COc1ccc2[nH]cc(CCN3CC[C@@H](OC(F)F)C3)c2c1 [(R) I-67] , output reported log10(IC50).
Response: -1.66

Request: For `[2H]C([2H])([2H])N(CCc1c[nH]c2ccc(SC)cc12)C([2H])([2H])[2H]` , write its log10(IC50).
Response: -2.41

Request: Look up and state reported log10(IC50) for `CCN(C)CCc1c[nH]c2ccc(SC)cc12`
Response: -2.70

Request: # return recorded log10(IC50) for entry `CN(C)CCc1c[nH]c2ccc(OCCOC(F)F)cc12`
Response: -1.06

Request: Give the measured log10(IC50) for COc1ccc2[nH]cc(CCN3CC[C@H](OC(F)F)C3)c2c1 [(S) I-67]
Response: -2.30

Request: Entry `CSc1ccc2[nH]cc(CCN(C(C)C)C(C)C)c2c1` needs its log10(IC50) filled in; supply it.
Response: -1.34

Request: Retrieve log10(IC50) measured for COc1ccc2[nH]cc(CCN3CC[C@@H](OC)C3)c2c1 [(R) I-66] and print it.
Response: -1.66

Request: Name the recorded log10(IC50) of the item `CCN(CC)CCc1c[nH]c2ccc(SC)cc12` in your answer.
Response: -2.70
